Kindly supply the reported Km values for the records listed here.
biological target: Recombinant KLK2 (Homo sapiens, UniProt P20151); construct: made in house; host or cells: baculovirus-insect cell line system; assay: Hydrolysis of FRET peptides by recombinant KLK2 (kinetic parameters); type: biochemical; conditions: pH 8.0, 20 mM Tris–HCl, 1 M sodium citrate, 37 °C, KLK2 1.6 nM; three enzymatic reactions, standard errors 5% or less
Sequence (P20151 25-261): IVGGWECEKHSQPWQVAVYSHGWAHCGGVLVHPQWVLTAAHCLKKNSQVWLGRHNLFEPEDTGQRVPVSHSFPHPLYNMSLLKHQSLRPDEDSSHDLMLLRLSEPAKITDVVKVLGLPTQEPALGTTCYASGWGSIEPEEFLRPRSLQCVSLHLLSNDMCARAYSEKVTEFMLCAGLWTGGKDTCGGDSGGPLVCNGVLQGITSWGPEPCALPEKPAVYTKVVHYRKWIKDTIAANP
Non-standard residues stand in square brackets, D forms with d. No end group written: not given here. *: point of attachment. EDDnp = O=[N+]([O-])c1ccc(NCCN*)c([N+](=O)[O-])c1; 2Abz = Nc1ccccc1C(=O)O
Answers without a unit are incomplete; give the number and then its unit.

GET /values?readout=Km&item= Abz-KXRSSKQ-EDDnp, X = S: FRET peptide, S2 series, X = S (Abz-KSRSSKQ-EDDnp)
9.1 µM

GET /values?readout=Km&item= Abz-KLRXSKQ-EDDnp, X = F: FRET peptide, S1’ series, X = F ([2Abz]KLRFSKQ-EDDnp)
1.2 µM

GET /values?readout=Km&item= Abz-KXRSSKQ-EDDnp, X = V: FRET peptide, S2 series, X = V (Abz-KVRSSKQ-EDDnp)
8.5 µM

GET /values?readout=Km&item= Abz-KLRXSKQ-EDDnp, X = V: FRET peptide, S1’ series, X = V ([2Abz]KLRVSKQ-EDDnp)
2.2 µM

GET /values?readout=Km&item= Abz-KLRXSKQ-EDDnp, X = E: FRET peptide, S1’ series, X = E ([2Abz]KLRESKQ-EDDnp)
6.6 µM

GET /values?readout=Km&item= Abz-KXRSSKQ-EDDnp, X = K: FRET peptide, S2 series, X = K (Abz-KKRSSKQ-EDDnp)
7.2 µM

GET /values?readout=Km&item= Abz-XLRSSKQ-EDDnp, X = F: FRET peptide, S3 series, X = F [Abz-XLRSSKQ-EDDnp, X = F] (Abz-FLRSSKQ-EDDnp)
6.6 µM

GET /values?readout=Km&item= Abz-KXRSSKQ-EDDnp, X = I: FRET peptide, S2 series, X = I [Abz-KXRSSKQ-EDDnp, X = I] (Abz-KIRSSKQ-EDDnp)
4.5 µM

GET /values?readout=Km&item= Abz-XLRSSKQ-EDDnp, X = S: FRET peptide, S3 series, X = S (Abz-SLRSSKQ-EDDnp)
3 µM
